# experimentalTarget: human AspH (His6-AspH315-758) (Homo sapiens, UniProt Q12797)
# Construct: N-Terminally His6-tagged human AspH315-758 (His6-AspH315-758) was produced in Escherichia coli BL21 (DE3); made in house; host or cells: Escherichia coli BL21 (DE3), pET-28a(+) vector
# Sequence (Q12797 315-758): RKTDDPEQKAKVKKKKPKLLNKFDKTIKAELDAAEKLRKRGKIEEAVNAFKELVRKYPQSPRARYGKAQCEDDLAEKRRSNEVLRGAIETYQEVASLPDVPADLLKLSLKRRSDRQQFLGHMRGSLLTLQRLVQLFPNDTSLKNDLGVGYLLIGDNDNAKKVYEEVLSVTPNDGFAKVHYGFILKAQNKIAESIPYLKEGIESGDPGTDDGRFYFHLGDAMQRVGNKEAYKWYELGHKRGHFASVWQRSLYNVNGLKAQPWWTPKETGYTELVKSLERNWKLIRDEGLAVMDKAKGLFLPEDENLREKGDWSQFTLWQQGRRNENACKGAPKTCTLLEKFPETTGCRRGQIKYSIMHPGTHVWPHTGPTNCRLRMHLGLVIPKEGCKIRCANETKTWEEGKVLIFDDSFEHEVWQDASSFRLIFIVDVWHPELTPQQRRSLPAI
# assayName: SPE-MS AspH inhibition assay
# Format: biochemical
# experimentalSetup: 50 nM His6-AspH315-758, 1.0 μM hFX-CP101-119; mean ± SD, n = 3; read-out: IC50 (ESI Fig. S4)
measuredQuantity: pIC50
Answers are plain numbers, as −log10 of the molar value.

Example entries begin here.
| molecule | pIC50 |
| --- | --- |
| CC(C)(NC(=O)C(=O)O)C(=O)O [compound 49, N-oxalyl-α-methylalanine] | 5.54 |
| CC(C)(CC(=O)C(=O)O)C(=O)O [compound 34, 4,4-Dimethyl-2OG] | 6.51 |

Continue with the molecule presented below.
Tell me measured pIC50 for O=C(O)CNC(=O)C(=O)O [NOG, N-oxalylglycine, reference compound] please.
6.00

* * *

# experimentalTarget: human AspH (His6-AspH315-758) (Homo sapiens, UniProt Q12797)
# Construct: N-Terminally His6-tagged human AspH315-758 (His6-AspH315-758) was produced in Escherichia coli BL21 (DE3); made in house; host or cells: Escherichia coli BL21 (DE3), pET-28a(+) vector
# assayName: SPE-MS AspH inhibition assay
# Format: biochemical
# experimentalSetup: 50 nM His6-AspH315–758, 1.0 μM hFX-CP101–119, 3 μM 2OG; mean ± SD, n = 3
measuredQuantity: IC50 (inhibition of AspH)

| compound | resultValue |
| --- | --- |
| O=C(O)C(=O)c1cscc1C(=O)O [compound 37] | did not inhibit |
| CC(CC(=O)C(=O)O)C(=O)O (stereo not drawn) [compound 26, 4-methyl-2OG] | did not inhibit |
| O=C(O)C(=O)c1ccc(C(=O)O)c(Br)c1 [compound 45] | Inactive |
| O=C(O)C(=O)c1ccc(C(=O)O)cc1 [compound 41, 4-carboxyphenylglyoxylic acid] | did not inhibit |
| O=C(O)C(=O)c1ccc(C(=O)O)cc1F [compound 42] | Inactive |

I need IC50 (inhibition of AspH) for every entry listed below, if you could help.
1. O=C(O)C(=O)c1ccccc1C(=O)O [compound 39]
2. CC(CC(=O)O)C(=O)C(=O)O (stereo not drawn) [compound 16, 3-methyl-2OG]
3. O=C(O)C(=O)c1ccc(C(=O)O)c(F)c1 [compound 43]
4. O=C(O)C(=O)c1cccc(C(=O)O)c1 [compound 40, 3-carboxyphenylglyoxylic acid]
5. O=C(O)C(=O)C12CCC(C(=O)O)(CC1)CC2 [compound 47]
6. Cc1cc(C(=O)O)ccc1C(=O)C(=O)O [compound 46]

["did not inhibit", "Inactive", "Inactive", "did not inhibit", "did not inhibit", "Inactive"]

Tell me measured IC50 (inhibition of AspH) for O=C(O)C(=O)c1ccc(C(=O)O)cc1Br [compound 44] please.
Inactive
